Just for reference, PubChem BioAssay (NCI) is where these values come from.

Method notes: NCI Yeast Anticancer Drug Screen. Data for the rad50 strain (AID 155);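 further: 0% = growth of vehicle-only cultures of the same strain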
Applied conditions: S. cerevisiae rad50 strain growth inhibition; at 50.0 µM; stronger effect = higher value
Compounds without any hit were thinned out: in the full panel of roughly 79,000, 15% have a hit.
Collected growth inhibition values appear next to each entry.

Compound | growth inhibition (%)
CCCCCCCCCCCCCCCC(=O)ON1C(=S)NC(C)(c2ccccc2)C1=S (stereo unspecified) | -0.65
Cc1ccc(NC(=O)Oc2ccc(Br)cc2Br)c([N+](=O)[O-])c1 | 9.3
Cc1ccc2c(c1)C(C)(C)CCC2 | -2.1
COC1=CC(=O)C(C2CC(=O)c3c(O)cc(O)cc3O2)=CC1=O (stereo unspecified) | -4.2
CC(=O)n1c2ccccc2c2nc3ccccc3nc21 | 0.3
Cc1ccc(S/C=C/Sc2ccc(C)cc2)cc1 | 15.1
COc1ccc(C2S/C(=C\c3cccc([N+](=O)[O-])c3)C(=O)N2NC(=O)Cc2ccccc2)cc1 (stereo unspecified) | 0.65
Cc1ccc(S(=O)(=O)OC2C3OC(C)(C)OC3OC2C2CSC(=S=O)S2)cc1 (stereo unspecified) | 31.6
CCCCCCCCCCCCCCCCc1c(C(=O)OC)[nH]c(=S)[nH]c1=O | -49
c1ccc(-c2cc(-c3ccccc3)nc(-c3ccncc3)c2)cc1 | -16.1
O=C(Nc1ccc2ccccc2c1)c1ccc(Cl)cc1Cl | -12.1

----------
Method notes: NCI Yeast Anticancer Drug Screen. Data for the mec2-1 strain (AID 157)
Applied conditions: S. cerevisiae mec2-1 strain, at 50.0 µM, stronger effect = higher value
This is part of a sample that, as a whole, favours compounds with a hit. Of some 79,000 tested, about 15% had one in any assay.
Collected growth inhibition values appear next to each entry.

Molecule | growth inhibition (%)
CC(=O)S | -18.4
CCOC(=O)NC(Nc1ccc(F)cc1F)(C(F)(F)F)C(F)(F)F | -23.4
C=CNC(=O)NC(=O)CSc1nnc(-c2ccccc2NC(=O)C(F)(F)F)c(=O)[nH]1 | -4.95
CCCCc1noc(N)c1SCC | 9.5
CCCCCCCCCCCCCCCCCC(=O)OCC(COC(C)=O)OC(C)=O (stereo not drawn) | -5.05
O=Cc1ccc(N2CCCCC2)cc1 | 7.95
C=C(C)[N+]([O-])=NC | 3.5
Oc1ccccc1CNCc1nc2ccccc2[nH]1 | -1.7

----------
Method notes: NCI Yeast Anticancer Drug Screen. Data for the bub3 strain (AID 167)
Applied conditions: S. cerevisiae bub3 mutant strain, at 50.0 µM, stronger effect = higher value
Compounds without any hit were thinned out: in the full panel of roughly 79,000, 15% have a hit.
Quick rule: growth inhibition of at least 10% means fulfilled, below that means not fulfilled.

Compound | Group label
COc1ccc(C#CC(O)C(F)(F)F)cc1 (stereo not given) | not fulfilled
CCCCN(CCCC)C(=O)C(=O)C(C)C(=O)CC (stereo not given) | fulfilled
O=C1N2Cc3c4ccc5c3CN3C(=O)N6Cc7c(ccc(c7CN1C6(c1ccccc1)C23c1ccccc1)OCCOCCOc1cc(Br)c(Br)cc1OCCOCCO4)OCCOCCOc1cc(Br)c(Br)cc1OCCOCCO5 (stereo not given) | not fulfilled
Cc1cccc(C(=O)O)c1[N+](=O)[O-] | not fulfilled
COc1ccc(CN(C)C)c(C(O)c2ccccc2)c1 (stereo not given) | not fulfilled
CC(=O)c1cccc(NC(=O)OC2CCCC(C)C2)c1 (stereo not given) | fulfilled
C=CCOc1ccc(C2C(C(=O)OCC)C(=O)CC(C)(O)C2C(=O)OCC)cc1OC (stereo not given) | not fulfilled
CCCCCCCCNCC(=O)O | not fulfilled
NNC(=O)CC(N)C(N)=O (stereo not given) | fulfilled
CCCC(=O)N[C@H]1C2C3CC4C5CC(C42)C1(C)C53 (stereo not given in full) | not fulfilled
CCN(Cc1cccc(S(=O)(=O)O)c1)c1ccc(C(=C2C=CC(=[N+](CC)Cc3cccc(S(=O)(=O)O)c3)C=C2)c2ccc(O)cc2S(=O)(=O)O)cc1 | not fulfilled
O=S(=O)(O)c1ccc(N=Nc2c(O)cc(O)cc2O)cc1 | fulfilled
CC1(CCC(=O)c2ccc3c(c2)OCO3)OCCO1 | fulfilled
O=C1C(Cl)N(c2c(Cl)cccc2Cl)C1c1c[nH]c2ccccc12 (stereo not given) | not fulfilled
O=C1OC2CCCC[C@@H]2C2C[C@]34CCCCC3[C@@H](C(=O)O4)C12 (stereo not given in full) | fulfilled
COC(=O)C1(C)CCCC2(C)C3CCC(C(C)C)CC3CCC12 (stereo not given) | not fulfilled
CCOc1ncnc2ccc(Cl)c(I)c12 | fulfilled
N#Cc1nc(C2=C(Cl)c3ccccc3OC2)[nH]c1C#N | fulfilled
O=C(N/N=C\c1ccc(Cl)cc1Cl)c1ccc(F)cc1 | not fulfilled
